- assayed_target: Aurora kinase B (Homo sapiens, UniProt Q96GD4)
- Sequence (Q96GD4 whole entry): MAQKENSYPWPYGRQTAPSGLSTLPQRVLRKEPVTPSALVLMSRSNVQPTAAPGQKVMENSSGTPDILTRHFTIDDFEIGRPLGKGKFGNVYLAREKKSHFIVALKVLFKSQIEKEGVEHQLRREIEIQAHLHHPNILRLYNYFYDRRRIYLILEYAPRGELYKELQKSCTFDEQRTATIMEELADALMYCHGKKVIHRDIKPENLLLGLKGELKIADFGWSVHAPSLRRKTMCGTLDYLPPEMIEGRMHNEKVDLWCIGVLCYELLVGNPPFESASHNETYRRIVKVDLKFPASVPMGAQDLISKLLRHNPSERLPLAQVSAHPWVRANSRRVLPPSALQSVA
- assay_remarks: Inhibition of aurora B kinase (unknown origin) at 10 uM using ATP and SB2 substrate incubated at 37 degC for 2 hrs by kinase-Glo reagent based luminescent kinase assay
Please respond with reported inhibition for every item in the list.
Only the number, expressed in %, is required.

Problem: Identify the reported inhibition for the following entry. "O=C(Nc1ccc(C(F)(F)F)cc1)Nc1cc2c(cc1N1CCCC1)/C(=C/c1ccc[nH]1)C(=O)N2"
Solution: 97

Problem: Identify the reported inhibition for the following entry. "O=C(Nc1ccc(F)cc1)Nc1cc2c(cc1N1CCOCC1)/C(=C/c1ccc(F)cc1)C(=O)N2"
Solution: 65

###

- assayed_target: Aurora kinase B (Homo sapiens, UniProt Q96GD4)
- assay_remarks: Inhibition of aurora B kinase (unknown origin) at 10 uM using ATP and SB2 substrate incubated at 37 degC for 2 hrs by kinase-Glo reagent based luminescent kinase assay
property_measured: inhibition (%)
Only the number, expressed in %, is required.

Problem: Identify the reported inhibition for the following entry. C=CCC1C(=O)Nc2cc(NC(=S)Nc3ccccc3OC)c(N(CCC)CCC)cc21 (stereo not drawn)
Solution: 35

Problem: Identify the reported inhibition for the following entry. "O=C(Nc1ccc(C(F)(F)F)cc1)Nc1cc2c(cc1N1CCCC1)/C(=C/c1cccs1)C(=O)N2"
Solution: 47

###

- assayed_target: Aurora kinase B (Homo sapiens)
- assay_remarks: Inhibition of aurora B kinase (unknown origin) at 10 uM using ATP and SB2 substrate incubated at 37 degC for 2 hrs by kinase-Glo reagent based luminescent kinase assay
Please respond with reported inhibition for every item in the list.

Problem: Identify the reported inhibition for the following entry. C=CCC1C(=O)Nc2cc(NC(=O)Nc3ccc(F)cc3)c(N(CCC)CCC)cc21 (stereo not drawn)
Solution: < 30%

Problem: Identify the reported inhibition for the following entry. "CCc1ccc(Oc2cc3c(cc2NS(=O)(=O)c2ccc(C)cc2)NC(=O)C3)cc1"
Solution: < 30%

Problem: Identify the reported inhibition for the following entry. "CCN(CC)c1cc2c(cc1NC(C)=O)NC(=O)/C2=C\c1ccccn1"
Solution: < 30%
